- Test system: diabetic (ob/ob) mice
- Measurement notes: Blood glucose lowering in diabetic (ob/ob) mice
- Type: in vivo, mouse
- Applied conditions: plasma glucose, dose 25 mg/Kg, (a) = no significant activity (p < 0.05) at this dose
Readout: % Change Glucose from Vehicle

1) Cc1sc2c(Br)c3ccccc3c(-c3cc(Br)c(O[C@H](Cc4ccccc4)C(=O)O)c(C4CCCC4)c3)c2c1C; −20.1 ^ %
2) CCC(C)c1cc(-c2c3ccccc3c(Br)c3sc(C)c(C)c23)cc(Br)c1O[C@H](Cc1ccccc1)C(=O)O (some centres unmarked); −32.5 ^ %
3) CCc1cc(-c2c3ccccc3c(Br)c3sc(C)c(C)c23)cc(Br)c1O[C@H](Cc1ccccc1)C(=O)O; −45.2 ^ %
4) Cc1sc2c(Br)c3ccccc3c(-c3cc(Br)c(O[C@H](Cc4ccccc4)C(=O)O)c(Br)c3)c2c1C; −38.18 ^ %

Reported % Change Glucose from Vehicle of Cc1sc2c(Br)c3ccccc3c(-c3ccc(O[C@H](Cc4ccccc4)C(=O)O)c(C(C)C)c3)c2c1C : −17.2 ^ %

Reported % Change Glucose from Vehicle of Cc1sc2c(Sc3ccccc3)c3ccccc3c(-c3cc(Br)c(O[C@H](Cc4ccccc4)C(=O)O)c(Br)c3)c2c1C : −21.10 (a) %

Reported % Change Glucose from Vehicle of Cc1c(CN2CCOCC2)sc2c(Br)c3ccccc3c(-c3cc(Br)c(OC(Cc4ccccc4)C(=O)O)c(Br)c3)c12 (centres unmarked) : −25.58 ^ %

Reported % Change Glucose from Vehicle of Cc1sc2c(Br)c3ccccc3c(-c3cc(Br)c(O[C@H](CCc4ccccc4)C(=O)O)c(Br)c3)c2c1C : −15.68 (a) %

* * *

- Study system: Human recombinant PTP1B (hPTP1B) (Homo sapiens, UniProt P18031)
- Sequence (P18031 whole entry): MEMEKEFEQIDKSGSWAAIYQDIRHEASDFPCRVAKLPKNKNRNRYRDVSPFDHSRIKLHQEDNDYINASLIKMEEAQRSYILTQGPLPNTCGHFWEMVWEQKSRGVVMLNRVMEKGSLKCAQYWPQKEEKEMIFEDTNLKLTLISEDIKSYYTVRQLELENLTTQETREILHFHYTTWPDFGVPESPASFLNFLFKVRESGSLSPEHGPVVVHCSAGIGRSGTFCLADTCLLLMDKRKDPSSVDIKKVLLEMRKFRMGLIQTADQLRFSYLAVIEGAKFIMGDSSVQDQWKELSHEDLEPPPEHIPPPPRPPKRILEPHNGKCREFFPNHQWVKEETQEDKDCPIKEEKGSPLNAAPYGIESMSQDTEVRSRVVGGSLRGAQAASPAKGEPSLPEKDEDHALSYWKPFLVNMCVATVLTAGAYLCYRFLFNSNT
Reported log10(IC50) is given for each of the following compounds.
Give log10 of IC50, with IC50 taken in nM.

For orientation, consider the following solved cases.
1) Cc1sc2c(Br)c3ccccc3c(-c3ccc(O[C@H](Cc4ccccc4)C(=O)O)c(F)c3)c2c1C; 2.46
2) CCC(C)c1cc(-c2c3ccccc3c(Br)c3sc(C)c(C)c23)cc(Br)c1O[C@H](Cc1ccccc1)C(=O)O (stereo partly shown); 1.95
3) Cc1sc2cc3ccccc3c(-c3ccc(O[C@H](C)C(=O)O)c(C4CCCC4)c3)c2c1C; 3.08
4) Cc1sc2c(Br)c3ccccc3c(-c3ccc(O[C@H](Cc4ccccc4)C(=O)O)cc3)c2c1C; 2.59
5) Cc1sc2c(Br)c3ccccc3c(-c3ccc(O[C@H](Cc4ccccc4)C(=O)O)c(C(C)C)c3)c2c1C; 2.37
6) Cc1sc2c(Br)c3ccccc3c(-c3cc(Br)c(O)c(C(C)C)c3)c2c1C; 3.24

The value of log10(IC50) recorded for Cc1sc2c(Br)c3ccccc3c(-c3cc(Br)c(O[C@@H](CCc4ccccc4)C(=O)O)c(Br)c3)c2c1C when tested on Human recombinant PTP1B (hPTP1B) (Homo sapiens, UniProt P18031) reads 1.69

* * *

- Tested on: rat hepatic microsomal PTPases
- Applied conditions: 50 μM compound
Reported % Change from Control is given for each of the following molecules.
Hi! Could you send only the number? It should be in %, unit omitted.

For orientation, consider the following solved cases.
1) CCN(CC)Cc1sc2c(Br)c3ccccc3c(-c3cc(Br)c(O[C@H](Cc4ccccc4)C(=O)O)c(Br)c3)c2c1C [Example 37]; −49.83
2) Cc1sc2c(Br)c3ccccc3c(-c3cc(Br)c(O)c([N+](=O)[O-])c3)c2c1C [Example 21]; −63.12
3) Cc1sc2c(Br)c3ccccc3c(-c3ccc(O)c(N)c3)c2c1C [Example 22]; −28.57
4) CCC(C)c1cc(-c2c3ccccc3c(Br)c3sc(C)c(C)c23)cc(Br)c1O[C@H](Cc1ccccc1)C(=O)O (stereo partly drawn) [Example 42]; −63.41
5) Cc1sc2c(Br)c3ccccc3c(-c3cc(Br)c(O[C@H](Cc4ccccc4)C(=O)O)c(C4CCCC4)c3)c2c1C [Example 48]; −44.69

Next molecule, % Change from Control to be filled in.
Reported % Change from Control of Cc1sc2c(Br)c3ccccc3c(-c3cc(Br)c(O[C@H](Cc4ccccc4)C(=O)O)c(C(C)C)c3)c2c1C [Example 40] : −83.88

* * *

Reported melting point is given for each of the following compounds.

For orientation, consider the following solved cases.
1) CC(=O)Oc1ccc(-c2c3ccccc3c(Br)c3sc(C)c(C)c23)cc1; 190 to 191 °C
2) Cc1sc2c(Br)c3ccccc3c(-c3cc(Br)c(O[C@H](C)C(=O)O)c(Br)c3)c2c1C; 224 to 225 °C

Reported melting point of Cc1sc2c(Br)c3ccccc3c(-c3cc(Br)c(O)c(C(C)C)c3)c2c1C : 157 to 162 °C

Reported melting point of Cc1sc2c(Br)c3ccccc3c(-c3ccc(O)cc3)c2c1C : 165 to 168 °C

Reported melting point of COc1c(N)cc(-c2c3ccccc3c(Br)c3sc(C)c(C)c23)cc1Br : 198 to 200 °C

Reported melting point of Cc1c(CN2CCOCC2)sc2c(Br)c3ccccc3c(-c3cc(Br)c(O)c(Br)c3)c12 : 237 to 240 °C

Reported melting point of Cc1sc2c(Br)c3ccccc3c(-c3cc(Br)c(O)c(Br)c3)c2c1C : 172 to 174 °C

Reported melting point of COc1c(Br)cc(-c2c3ccccc3c(Br)c3sc(C)c(C)c23)cc1NCC(=O)O : > 190 °C (dec.)

Reported melting point of Cc1sc2c(I)c3ccccc3c(-c3ccc(OS(C)(=O)=O)cc3)c2c1C : 212 to 213 °C

Reported melting point of Cc1sc2c(Br)c3ccccc3c(-c3ccc(O)c([N+](=O)[O-])c3)c2c1C : 183 to 185 °C

Reported melting point of COC(=O)[C@@H](Cc1ccccc1)Oc1c(Br)cc(-c2c3ccccc3c(Br)c3sc(C)c(C)c23)cc1Br : 174 to 175 °C

Reported melting point of Cc1sc2c(Br)c3ccccc3c(-c3cc(Br)c(O)c([N+](=O)[O-])c3)c2c1C : 129 to 130 °C

* * *

Reported melting point is given for each of the following molecules.

For orientation, consider the following solved cases.
1) Cc1sc2c(Br)c3ccccc3c(-c3cc(Br)c(O)c(NC(=O)OC(C)(C)C)c3)c2c1C; 205 to 207 °C
2) Cc1sc2c(Br)c3ccccc3c(-c3ccc(O)c(N)c3)c2c1C; 173 to 175 °C
3) Cc1sc2c(Br)c3ccccc3c(-c3cc(Br)c(O[C@H](Cc4ccccc4)C(=O)O)c(C4CCCC4)c3)c2c1C; 167 to 168.5 °C

Reported melting point of CC(=O)Oc1ccc(-c2c3ccccc3cc3sc(C)c(C)c23)cc1 : 147 to 150 °C

Reported melting point of Cc1sc2c(Br)c3ccccc3c(-c3cc(Br)c(O[C@@H](CCc4ccccc4)C(=O)O)c(Br)c3)c2c1C : 176 to 177 °C

Reported melting point of Cc1sc2c(Sc3ccccc3)c3ccccc3c(-c3cc(Br)c(O)c(Br)c3)c2c1C : 237 to 239 °C

Reported melting point of Cc1sc2c(Br)c3ccccc3c(-c3cc(C(C)C)c(OCC(=O)O)c(C(C)C)c3)c2c1C : 228 to 231 °C

Reported melting point of COC(=O)CNc1cc(-c2c3ccccc3c(Br)c3sc(C)c(C)c23)cc(Br)c1OC : 194 to 198 °C

* * *

- Tested on: rat hepatic microsomal PTPases
- Applied conditions: 50 μM compound
Sorting guide: entries reporting % Change from Control beneath -60% go in the Fulfilled pile, the rest go in the Not fulfilled pile.

1. Cc1sc2c(Br)c3ccccc3c(-c3ccc(O)c([N+](=O)[O-])c3)c2c1C [Example 20]; Not fulfilled
2. Cc1sc2c(Sc3ccccc3)c3ccccc3c(-c3cc(Br)c(O[C@H](C)C(=O)O)c(Br)c3)c2c1C [Example 34]; Fulfilled
3. Cc1sc2cc3ccccc3c(-c3ccc(O[C@H](Cc4ccccc4)C(=O)O)c(C4CCCC4)c3)c2c1C [Example 45]; Fulfilled
4. Cc1cc(-c2c3ccccc3c(Br)c3sc(C)c(C)c23)cc(C)c1O[C@H](Cc1ccccc1)C(=O)O [Example 49]; Fulfilled
5. Cc1sc2c(Br)c3ccccc3c(-c3ccc(O[C@H](Cc4ccccc4)C(=O)O)c(F)c3)c2c1C [Example 52]; Fulfilled

Query :: Is the reported % Change from Control for Cc1sc2c(Br)c3ccccc3c(-c3cc(Br)c(O)c(Br)c3)c2c1C [Example 9] strictly below -60%?
Result :: Not fulfilled

Query :: Is the reported % Change from Control for Cc1sc2c(Br)c3ccccc3c(-c3ccc(O[C@H](Cc4ccccc4)C(=O)O)c(C(C)C)c3)c2c1C [Example 44] strictly below -60%?
Result :: Fulfilled
